meta.source: ChEMBL document CHEMBL4513216

assayNotes: Toxicity liver stage against HepG2, at 10uM
Assay type: cell-based
Design: test concentration 10 uM, cell line HepG2-A16-CD81EGFP
conditionSummary: human, HepG2-A16-CD81EGFP cells; read-out: INHIBITION
measuredAttribute: cytotoxicity at 10 µM (%)
A number alone suffices; assume %.

The cases that follow already have their cytotoxicity at 10 µM on record.
>>> reported("COc1ccc(CNC(=O)Nc2cccnc2N2CCCC2)cc1")
-21.5
>>> reported("COc1nccnc1N1CCCC2(C1)C(=O)N(C)c1ccccc12 (stereo not drawn)")
-6.47
>>> reported("CC(C)(C)CC(=O)Nc1ccccc1SCC(N)=O")
-138
>>> reported("Fc1ccc(-c2noc(CN3CCC(c4cc[nH]n4)CC3)n2)cc1")
18.4

Data point: CCCNC(=O)c1cc(OC)c(OC)cc1N(C)S(C)(=O)=O ; cytotoxicity at 10 µM = -5.18

Data point: COc1ccc(C)cc1CSCCn1nc2ccccn2c1=O ; cytotoxicity at 10 µM = 1.03

Data point: OCCCN1CCCC1c1nc(Cc2ccc(F)cc2)no1 (stereo not drawn) ; cytotoxicity at 10 µM = -4.58

Data point: CNC(=O)C1(c2cnccn2)CCCN1C(=O)c1cccc(C)n1 (stereo not drawn) ; cytotoxicity at 10 µM = -18.6

Data point: CS(=O)(=O)N1C[C@H]2CC[C@@H](C1)N(CCC(=O)NCc1ccccc1F)C2 ; cytotoxicity at 10 µM = -11

Data point: CC1CCCCN1C(=O)c1nc2c(n1C(C)C)CCN(C)C2 (stereo not drawn) ; cytotoxicity at 10 µM = 18.2

Data point: CC(=O)NCCc1ccc(S(=O)(=O)Nc2ccc(C)cc2F)s1 ; cytotoxicity at 10 µM = -5.48

Data point: OC(CN(Cc1ccccc1)Cc1cccnc1)c1ccco1 (stereo not drawn) ; cytotoxicity at 10 µM = -0.408

Data point: Cn1nc(C(=O)N2CCOCC2)cc1C(=O)Nc1ncc(Cl)cc1Cl ; cytotoxicity at 10 µM = 12.5

Data point: O=C(NC1CC1)[C@H]1CN(Cc2ccccc2)C[C@@H]1C(=O)c1ccccc1 ; cytotoxicity at 10 µM = 0.401

Data point: Cc1cccc2nc(C(=O)N3CCCC[C@]4(C)NC(=O)CC[C@H]34)cn12 ; cytotoxicity at 10 µM = -13.7

Data point: O=C(Cn1c(=O)oc2ccccc21)NCC(O)c1ccc2c(c1)CCO2 (stereo not drawn) ; cytotoxicity at 10 µM = -6.81

Data point: Cc1cc(NC(=O)C(c2cccc(F)c2)N2CCOCC2)sn1 (stereo not drawn) ; cytotoxicity at 10 µM = -3.98

Data point: O=C(NCCN1CCCCC1=O)C1CCC(=O)N(C2CCCC2)C1 (stereo not drawn) ; cytotoxicity at 10 µM = -10.8
